- Assayed target: Human factor D (Homo sapiens (Human), UniProt P00746)
- Sequence (P00746 26-253): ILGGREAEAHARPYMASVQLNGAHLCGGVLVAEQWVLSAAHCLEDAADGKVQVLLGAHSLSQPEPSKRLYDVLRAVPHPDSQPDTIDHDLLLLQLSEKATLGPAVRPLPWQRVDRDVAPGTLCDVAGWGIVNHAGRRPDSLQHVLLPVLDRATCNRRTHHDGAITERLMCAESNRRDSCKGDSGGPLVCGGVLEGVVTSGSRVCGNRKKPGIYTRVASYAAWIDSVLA
- Assay notes: Human Factor D Assay
- Assay type: biochemical
- Condition description: human factor D 80 nM, substrate Z-L-Lys-SBzl, DTNB
pIC50: −log10 of the molar value.
Item-by-item account of pIC50
Observation type: pIC50

>>> value("CC(=O)c1cn(CC(=O)N2C[C@H](F)C[C@H]2C(=O)Nc2ccc(CNC(=O)OCC3c4ccccc4-c4ccccc43)cc2)c2ccc(-c3ccnnc3)cc12")
"< 5.00"
>>> value("CN1CC=C(c2ccc3c(c2)c(C(N)=O)nn3CC(=O)N2C[C@H](F)C[C@H]2C(=O)Nc2cccc(Br)n2)CC1")
"> 6.00"
>>> value("NC(=O)c1nn(CC(=O)N2C[C@H](F)C[C@H]2C(=O)Nc2cccc(-c3ccccc3Cl)c2F)c2ccc(-c3cncnc3)cc12")
"> 6.00"
>>> value("NC(=O)c1nn(CC(=O)N2C[C@H](F)C[C@H]2C(=O)Nc2nnc(-c3ccc(Cl)c(Cl)c3)s2)c2ccc(-c3ccnnc3)cc12")
"< 5.00"
>>> value("CC(=O)c1cn(CC(=O)N2C[C@H](F)C[C@H]2C(=O)Nc2cccc(Br)n2)c2ccc(-c3cnc(C)nc3)cc12")
"> 6.00"
>>> value("Cn1cc(N2CCCC(NC(=O)[C@@H]3C[C@@H](F)CN3C(=O)Cn3nc(C(N)=O)c4cc(-c5ccnnc5)ccc43)C2)cn1 (stereo partly shown)")
"< 5.00"
>>> value("CC(=O)c1cn(CC(=O)N2C[C@H](F)C[C@H]2C(=O)Nc2cccc(Cl)c2C(F)(F)F)c2ccc(-c3ccnnc3)cc12")
"< 5.00"
>>> value("CC(=O)c1cn(CC(=O)N2C[C@H](F)C[C@H]2C(=O)Nc2cccc3c2CN(c2ccccn2)C3)c2ccc(-c3ccnnc3)cc12")
"< 5.00"
>>> value("CC(=O)c1cn(CC(=O)N2C[C@H](F)C[C@H]2C(=O)Nc2cccc(-c3ccccc3Cl)c2F)c2ccc(-c3cnnc(C)c3)cc12")
"> 6.00"
>>> value("COc1ncc(-c2ccc3c(c2)c(C(C)=O)cn3CC(=O)N2C[C@H](F)C[C@H]2C(=O)Nc2cccc(-c3ccccc3Cl)c2F)cn1")
"> 6.00"
>>> value("NC(=O)c1nn(CC(=O)N2C[C@H](F)C[C@H]2C(=O)Nc2nc(-c3cccc(Cl)c3)ns2)c2ccc(-c3ccnnc3)cc12")
"< 5.00"
>>> value("CC(=O)c1cn(CC(=O)N2C[C@H](F)C[C@H]2C(=O)Nc2cccc(-c3ccccc3Cl)c2F)c2ccc(-c3ccnnc3)cc12")
"> 6.00"
>>> value("NC(=O)c1nn(CC(=O)N2C[C@H](F)C[C@H]2C(=O)Nc2ccc(F)c(-c3nnc4n3CCCCC4)c2)c2ccc(-c3ccnnc3)cc12")
"< 5.00"
>>> value("NC(=O)c1nn(CC(=O)N2[C@@H]3C[C@@H]3C[C@H]2C(=O)Nc2cccc(Br)n2)c2ccc(-c3cncnc3)cc12")
"> 6.00"
>>> value("NC(=O)c1nn(CC(=O)N2C[C@H](F)C[C@H]2C(=O)NC2CCCc3nc(-c4ccc(F)cc4)sc32)c2ccc(-c3ccnnc3)cc12 (stereo partly shown)")
"< 5.00"
>>> value("NC(=O)c1nn(CC(=O)N2C[C@H](F)C[C@H]2C(=O)Nc2ccc3ncsc3c2)c2ccc(-c3ccnnc3)cc12")
"< 5.00"
>>> value("NCc1ccc(NC(=O)[C@@H]2C[C@@H](F)CN2C(=O)Cn2nc(C(N)=O)c3cc(-c4ccnnc4)ccc32)cc1")
"< 5.00"
>>> value("NC(=O)c1nn(CC(=O)N2C[C@H](F)C[C@H]2C(=O)Nc2ccc3ccccc3c2)c2ccc(-c3ccnnc3)cc12")
"< 5.00"
>>> value("COCCNc1ncc(-c2ccc3c(c2)c(C(C)=O)cn3CC(=O)N2C[C@H](F)C[C@H]2C(=O)Nc2cccc(-c3ccccc3Cl)c2F)cn1")
"> 6.00"
>>> value("CC(=O)c1cn(CC(=O)N2C[C@H](F)C[C@H]2C(=O)Nc2cccc(-c3ncccc3Cl)c2F)c2ccc(-c3cnc(C)nc3)cc12")
"> 6.00"
>>> value("NC(=O)c1nn(CC(=O)N2C[C@H](F)C[C@H]2C(=O)N[C@H]2CCCC[C@@H]2OCc2ccccc2)c2ccc(-c3ccnnc3)cc12")
"< 5.00"
>>> value("Cn1cnnc1-c1ccccc1NC(=O)[C@@H]1C[C@@H](F)CN1C(=O)Cn1nc(C(N)=O)c2cc(-c3ccnnc3)ccc21")
"< 5.00"
>>> value("CC(=O)c1cn(CC(=O)N2[C@@H]3C[C@@H]3C[C@H]2C(=O)Nc2cccc(Br)n2)c2ccc(-c3cncnc3)cc12")
"> 6.00"
>>> value("CC(=O)c1cn(CC(=O)N2C[C@H](F)C[C@H]2C(=O)Nc2cncc(Br)c2)c2ccc(-c3ccnnc3)cc12")
"> 6.00"
>>> value("CC(=O)c1cn(CC(=O)N2C[C@H](F)C[C@H]2C(=O)NC2CCCc3nc(-c4ccc(F)cc4)sc32)c2ccc(-c3ccnnc3)cc12 (stereo partly shown)")
"< 5.00"
